Quick reference: pIC50 of the listed items.
System: HCT-116
Experiment: Growth inhibition of human HCT116 cells after 72 hrs by MTT assay
Format: functional, cell-based
Conditions: HCT-116, 72 h
Conceptually, pIC50 converts a concentration in mol/L into minus its log10.

O=[N+]([O-])c1ccc(-c2nc3ccc(C4=NCCN4)cc3s2)cc1
5.10

Now consider the entry below.
Given the compound Cl.Nc1ccc2nc(-c3ccc(C4=NCCN4)cc3)sc2c1 , what is its reported pIC50?
6.00

###

Test: Acute toxicity in po dosed BALB/c mouse
Type: organism-based
Conditions: in vivo
Entries and their LD50 values follow.
Give a bare numeral; the unit mg/kg is implied.

Some entries whose results are on file:
Cl.Nc1ccc2nc(-c3ccc(C4=NCCN4)cc3)sc2c1
250
Cl.N=C(N)c1ccc(-c2nc3ccc(N)cc3s2)cc1
250

Bench note: what LD50 did Cl.Nc1ccc(-c2nc3ccc(C4=NCCN4)cc3s2)cc1 show?
696

What do you get for Cl.N=C(N)c1ccc2nc(-c3ccc(N)cc3)sc2c1 ?
67.3

###

Test system: MCF7
Experiment: Growth inhibition of human MCF7 cells after 72 hrs by MTT assay
Assay type: functional, cell-based
Conditions: MCF7, 72 h
Items are presented alongside their recorded IC50.
Give the quantity in nM, number only.

Cl.Nc1ccc2nc(-c3ccc(C4=NCCN4)cc3)sc2c1
1000

Look up IC50 for this compound: O=[N+]([O-])c1ccc2nc(-c3ccc(C4=NCCN4)cc3)sc2c1
3000

Could you do the same for N=C(N)c1ccc(-c2nc3ccc(C(=N)N)cc3s2)cc1 , please?
11000

Param item: c1cc(-c2nc3ccc(C4=NCCN4)cc3s2)ccc1C1=NCCN1
1000

What do we get for Cl.N=C(N)c1ccc(-c2nc3ccc(N)cc3s2)cc1 ?
200

Param item: N=C(N)c1ccc2nc(-c3ccc([N+](=O)[O-])cc3)sc2c1
2000

Another: O=[N+]([O-])c1ccc(-c2nc3ccc(C4=NCCN4)cc3s2)cc1
11000

Try the compound Cl.N=C(N)c1ccc2nc(-c3ccc(N)cc3)sc2c1
9000

And the next one, N=C(N)c1ccc(-c2nc3ccc([N+](=O)[O-])cc3s2)cc1 ?
1000

Similarly, Cl.Nc1ccc(-c2nc3ccc(C4=NCCN4)cc3s2)cc1 ?
1700

###

Quick list: IC50 per entry.
Tested on: HCT-116
Test: Growth inhibition of human HCT116 cells after 72 hrs by MTT assay
Assay type: functional, cell-based
Details: HCT-116, 72 h
Only the number, expressed in µM, is required.

Sample records with IC50:
Cl.N=C(N)c1ccc2nc(-c3ccc(N)cc3)sc2c1
10
Cl.N=C(N)c1ccc(-c2nc3ccc(N)cc3s2)cc1
3
N=C(N)c1ccc(-c2nc3ccc([N+](=O)[O-])cc3s2)cc1
1
N=C(N)c1ccc2nc(-c3ccc([N+](=O)[O-])cc3)sc2c1
2
N=C(N)c1ccc(-c2nc3ccc(C(=N)N)cc3s2)cc1
64

If you can, please state the reported IC50 value of c1cc(-c2nc3ccc(C4=NCCN4)cc3s2)ccc1C1=NCCN1 .
2

Queued: O=[N+]([O-])c1ccc2nc(-c3ccc(C4=NCCN4)cc3)sc2c1
3

Okay, and Cl.Nc1ccc(-c2nc3ccc(C4=NCCN4)cc3s2)cc1 ?
1
